- test.protocol: Natriuretic polypeptide receptor (hNpr1) antagonism - Pilot counterscreen GloSensor control cell line (AID 1347045)
- condition.context: HEK293 cGMP GloSensor cells, SNP-stimulated luminescence, 20 min; series mostly up to 38.3 µM
Results filed as inconclusive are left out. Active and inactive are the calls of the source. Calls come from the whole dose curve.
Pick from active, inactive when you respond.

// known answers, use as guide
{"compound": "O=C(O)[C@@H]1C[C@H](C(=O)O)N1", "label.class": "inactive"}
{"compound": "CCCCN1CCC(n2c(=O)[nH]c3ccccc32)CC1", "label.class": "inactive"}
{"compound": "CCN(CC)c1ncnc2c1ncn2[C@@H]1O[C@H](COP(=O)(O)OP(=O)(O)C(Br)(Br)P(=O)(O)O)[C@@H](O)[C@H]1O", "label.class": "inactive"}
{"compound": "CC(C)(C)c1ccc(S(=O)(=O)/C=C/C#N)cc1", "label.class": "active"}
{"compound": "COc1cc2nc(N3CCN(C(=O)OCc4ccccc4)C(C(=O)NC(C)(C)C)C3)nc(N)c2cc1OC (configuration not stated)", "label.class": "inactive"}

Exercise: Call for entry CN(C)c1nc2c(Br)c(Br)c(Br)c(Br)c2[nH]1 :
Key: inactive

Exercise: Call for entry N=C(N)SCCc1ccc(CCSC(=N)N)cc1 :
Key: inactive

Exercise: Call for entry O=c1[nH]c2cc(Cl)c(Cl)cc2[nH]c1=O :
Key: inactive

Exercise: Call for entry O=C(O)CC1CC(c2ccccc2)=NO1 (configuration not stated) :
Key: inactive

Exercise: Call for entry NC(=O)C1=CN(C2OC(COP(=O)(O)OP(=O)(O)OC[C@H]3O[C@@H](n4cnc5c(N)ncnc54)[C@H](OP(=O)(O)O)[C@@H]3O)C(O)C2O)C=CC1 (some centres not stated) :
Key: inactive
